Data provenance is patent US10793568B2.

# EXPERIMENTAL SYSTEM: ligand binding domain of human FXR (Homo sapiens (Human), UniProt Q96RI1)
# Sequence (Q96RI1 262-486): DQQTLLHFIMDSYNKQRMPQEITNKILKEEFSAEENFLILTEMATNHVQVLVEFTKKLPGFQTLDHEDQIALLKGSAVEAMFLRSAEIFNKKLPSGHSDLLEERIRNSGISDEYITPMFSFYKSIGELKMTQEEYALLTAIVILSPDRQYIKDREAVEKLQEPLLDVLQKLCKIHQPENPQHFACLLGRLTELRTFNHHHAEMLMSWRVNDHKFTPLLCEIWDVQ
# EXPERIMENT DESCRIPTION: FXR ligand binding assay (LanthaScreen TR-FRET, SRC2-2 peptide recruitment)
# EXPERIMENTAL CONDITIONS: extent of activation relative to GW4064; read-out: % Efficacy
ENDPOINT LABEL: Emax

Use these answered entries as a reference point.
{"COMPOUND": "C[C@H]1[C@H]2C[C@H](C[C@@H]2OCc2c(-c3c(Cl)cccc3Cl)noc2C2CC2)N1c1ccc(C(=O)O)cc1 [Compound I-361]", "Emax": "52%"}
{"COMPOUND": "O=C(NS(=O)(=O)CCCCCCCCCCN1CCC1)c1ccc(N2C[C@@H]3C[C@H]2C[C@H]3OCc2c(-c3c(Cl)cccc3Cl)noc2C2CC2)c(F)c1 [Compound I-227]", "Emax": "163%"}
{"COMPOUND": "C[C@H]1[C@H]2C[C@H](C[C@@H]2OCc2c(-c3c(Cl)cccc3Cl)noc2C2CC2)N1c1ccc(C(=O)O)cc1F [Compound I-364]", "Emax": "47%"}
{"COMPOUND": "Cc1cccc(F)c1-c1noc(C2CC2)c1CO[C@@H]1C[C@@H]2C[C@H]1C(=O)N2c1ccc(C(=O)O)cc1 [Compound I-307]", "Emax": "154%"}
{"COMPOUND": "O=C(NS(=O)(=O)C1CC1)c1ccc(N2C(=O)[C@@H]3C[C@H]2C[C@H]3OCc2c(-c3c(Cl)cccc3Cl)noc2C2CC2)cc1F [Compound I-331]", "Emax": "180%"}

Prompt line: Please give the documented Emax of C[C@@H]1[C@@H]2C[C@@H](C[C@H]2OCc2c(-c3c(Cl)cccc3Cl)noc2C2CC2)N1c1ccc(C(=O)NS(=O)(=O)C2CCOCC2)cn1 [Compound I-373]
Response line: 62%
